# assay protocol: Solubility of esylate salt: final concentration of the solution after filtration
# Assay type: physicochemical
# test parameters: pH 2.7, aqueous buffer, thermodynamic from solid; 112 mg in 3 mL sodium phosphate buffer pH 3.1 I = 0.1, stirred over night, at a pH of 2.7
measured quantity: solubility thermodynamic (mg/mL)

* CCS(=O)(=O)O.CO/N=C(\N)c1ccc(CNC(=O)C2CCN2C(=O)C(O)c2cc(Cl)cc(OC(F)F)c2)cc1 (stereo not shown) [Compound A as esylate salt] | 33
